Replica Evaluation (mean of n = 5), difference of pore size score before/after application reference
Test system: pores on the cheek of healthy male subjects
Protocol: Effect of shrinking human pores: replica evaluation of cheek pores
Type: in vivo
Settings: Table 5; 3.0 weight % solution (15 weight % ethanol), twice a day for a month, cheek; control 0.3
Where a SMILES comes first, the peptide text is derived from it. [ ]: non-standard residue; d: D form. Sar = CNCC(=O)O
Readout Kind: Replica Evaluation (mean of n = 5), difference of pore size score before/after application

[[record]]
compound = "O=C(O)CNc1ccccc1"
observed_result = "−1.0"

[[record]]
compound = "O=S(=O)(O)CC(O)CNC1CCCCC1 (stereo not drawn)"
observed_result = "−1.6"

[[record]]
compound = "CCNCC(=O)O"
observed_result = "−1.4"

[[record]]
compound = "O=S(=O)(O)CCCNC1CCCCC1"
observed_result = "−1.4"

[[record]]
compound = "CN(CC(=O)O)C(=O)CN [glycyl-sarcosine, glycyl sarcosine] (H-Gly-[Sar]-OH)"
observed_result = "−0.8"

[[record]]
compound = "NC(=O)NCC(=O)O"
observed_result = "−0.8"

